Assay: Pharmacokinetic study in male SD rats
Type: in vivo
Conditions: rat, plasma, IV, 2 mg/kg, mean
Protocol: A pharmacokinetic study in male SD rats: Male SD rats for pharmacokinetic study within 24 hours were divided into two groups: intravenous administration and oral administration. Each group has three animals. For group of intravenous administration, blood samples were collected at pre-dose, 0.0833, 0.167, 0.5, 1, 2, 4, 8, 24 h post-dose; for group of oral administration, blood samples were collected at pre-dose, 0.167, 0.5, 1, 2, 4, 8, 24 h post-dose. […]
METRIC: half-life (min)
# value in min; strip the unit string

Ask: Give reported half-life value for C=CC(=O)N1CC[C@@H](n2nc(-c3ccc(Oc4c(F)c(F)cc(F)c4F)cc3F)c3c(N)ncnc32)C1 [Compound 45]
Result: 47.2

###

assay: Pharmacokinetic study in Beagle dogs; type: in vivo; conditions: dog, plasma, IV, 2 mg/kg, mean
METRIC: AUC(0-inf) (ng·h/mL)
# value in ng·h/mL; strip the unit string

Ask: Give reported AUC(0-inf) value for "C=CC(=O)N1CC[C@@H](n2nc(-c3ccc(Oc4c(F)c(F)cc(F)c4F)cc3F)c3c(N)ncnc32)C1"
Result: 987

###

test: Toxicokinetic (TK) study in rats, 28-day; format: in vivo, rat; conditions: male, rat, in vivo, 40 mg/kg, Study Day 1, Male
METRIC: Tmax (h)
# value in h; strip the unit string

Ask: Give reported Tmax value for "C=CC(=O)N1CC[C@@H](n2nc(-c3ccc(Oc4c(F)c(F)cc(F)c4F)cc3F)c3c(N)ncnc32)C1"
Result: 2

###

assay: Toxicokinetic (TK) study in rats, 28-day; assay type: in vivo, rat; conditions: male, rat, in vivo, 40 mg/kg, Study Day 28, Male, read-out: AUC0-24 h
METRIC: AUC(0-t) (ng·h/mL)
# value in ng·h/mL; strip the unit string

Ask: Give reported AUC(0-t) value for C=CC(=O)N1CC[C@@H](n2nc(-c3ccc(Oc4c(F)c(F)cc(F)c4F)cc3F)c3c(N)ncnc32)C1 [Compound 45]
Result: 15400

###

assay: Toxicokinetic (TK) study in dogs, 28-day; format: in vivo, dog; details: female, dog, in vivo, 15 mg/kg/day, Study Day 28, Female
METRIC: Tmax

Ask: Give reported Tmax value for "C=CC(=O)N1CC[C@@H](n2nc(-c3ccc(Oc4c(F)c(F)cc(F)c4F)cc3F)c3c(N)ncnc32)C1"
Result: 2 h

###

experiment: Toxicokinetic (TK) study in dogs, 28-day; assay type: in vivo, dog; settings: male, dog, in vivo, 45 mg/kg/day, Study Day 28, Male, read-out: AUC0-24 h
METRIC: AUC(0-t) (ng·h/mL)
# value in ng·h/mL; strip the unit string

Ask: Give reported AUC(0-t) value for C=CC(=O)N1CC[C@@H](n2nc(-c3ccc(Oc4c(F)c(F)cc(F)c4F)cc3F)c3c(N)ncnc32)C1 [Compound 45]
Result: 9170

###

assay: Toxicokinetic (TK) study in dogs, 28-day; assay type: in vivo, dog; conditions: female, dog, in vivo, 150 mg/kg/day, Study Day 1, Female, read-out: AUC0-24 h
METRIC: AUC(0-t) (ng·h/mL)
# value in ng·h/mL; strip the unit string

Ask: Give reported AUC(0-t) value for "C=CC(=O)N1CC[C@@H](n2nc(-c3ccc(Oc4c(F)c(F)cc(F)c4F)cc3F)c3c(N)ncnc32)C1"
Result: 11200

###

target: BTK wild type (Homo sapiens (Human)); test: Inhibition assay of BTK kinase activity (HTRF); format: biochemical; settings: read-out: BTK IC50
pIC50: −log10 of the molar value.
just bin them by pIC50: bottom end = under 6, midrange = from 6 up to 8, top end = 8 and over

// below: answered compounds
N=C(N)NC(=O)N1CCCC(n2nc(-c3ccc(Oc4c(F)c(F)cc(F)c4F)cc3F)c3c(N)ncnc32)C1 (centres unmarked) ... midrange
Nc1ncnc2c1c(-c1ccc(Oc3c(F)c(F)cc(F)c3F)cc1F)nn2C1CCCN(C(=O)CC(=O)C2CC2)C1 (centres unmarked) ... midrange
CN/C(=C\[N+](=O)[O-])N1CCCC(n2nc(-c3ccc(Oc4c(F)c(F)cc(F)c4F)cc3F)c3c(N)ncnc32)C1 (centres unmarked) ... bottom end
Nc1ncnc2c1c(-c1ccc(Oc3c(F)c(F)cc(F)c3F)cc1F)nn2[C@@H]1CCN(C(=O)c2nc3ccccc3o2)C1 ... bottom end
Nc1ncnc2c1c(-c1ccc(Oc3c(F)c(F)cc(F)c3F)cc1F)nn2[C@@H]1CCN(C(=O)C(Cl)CO)C1 (some centres unmarked) ... midrange

Then this compound:
Ask: In plain terms, what class is C=CC(=O)N1CCCC(n2nc(-c3ccc(Oc4cccc(NS(C)(=O)=O)c4)cc3F)c3c(N)ncnc32)C1 (centres unmarked) ?
Result: top end

###

test: Toxicokinetic (TK) study in dogs, 28-day; assay type: in vivo, dog; details: male, dog, in vivo, 45 mg/kg/day, Study Day 28, Male
METRIC: Cmax (ng/mL)
# value in ng/mL; strip the unit string

Ask: Give reported Cmax value for "C=CC(=O)N1CC[C@@H](n2nc(-c3ccc(Oc4c(F)c(F)cc(F)c4F)cc3F)c3c(N)ncnc32)C1"
Result: 1470

###

assay: Pharmacokinetic study in male SD rats; type: in vivo; settings: rat, plasma, IV, 2 mg/kg, mean
METRIC: AUC(0-inf) (ng·h/mL)
# value in ng·h/mL; strip the unit string

Ask: Give reported AUC(0-inf) value for "C=CC(=O)N1CC[C@@H](n2nc(-c3ccc(Oc4c(F)c(F)cc(F)c4F)cc3F)c3c(N)ncnc32)C1"
Result: 1740

###

test: Toxicokinetic (TK) study in dogs, 28-day; type: in vivo, dog; settings: male, dog, in vivo, 15 mg/kg/day, Study Day 28, Male
METRIC: Cmax (ng/mL)
# value in ng/mL; strip the unit string

Ask: Give reported Cmax value for "C=CC(=O)N1CC[C@@H](n2nc(-c3ccc(Oc4c(F)c(F)cc(F)c4F)cc3F)c3c(N)ncnc32)C1"
Result: 576

###

biological target: BTK wild type (Homo sapiens (Human), UniProt Q06187); assay: Inhibition assay of BTK kinase activity (HTRF); format: biochemical; conditions: read-out: BTK IC50
Sequence (Q06187 whole entry): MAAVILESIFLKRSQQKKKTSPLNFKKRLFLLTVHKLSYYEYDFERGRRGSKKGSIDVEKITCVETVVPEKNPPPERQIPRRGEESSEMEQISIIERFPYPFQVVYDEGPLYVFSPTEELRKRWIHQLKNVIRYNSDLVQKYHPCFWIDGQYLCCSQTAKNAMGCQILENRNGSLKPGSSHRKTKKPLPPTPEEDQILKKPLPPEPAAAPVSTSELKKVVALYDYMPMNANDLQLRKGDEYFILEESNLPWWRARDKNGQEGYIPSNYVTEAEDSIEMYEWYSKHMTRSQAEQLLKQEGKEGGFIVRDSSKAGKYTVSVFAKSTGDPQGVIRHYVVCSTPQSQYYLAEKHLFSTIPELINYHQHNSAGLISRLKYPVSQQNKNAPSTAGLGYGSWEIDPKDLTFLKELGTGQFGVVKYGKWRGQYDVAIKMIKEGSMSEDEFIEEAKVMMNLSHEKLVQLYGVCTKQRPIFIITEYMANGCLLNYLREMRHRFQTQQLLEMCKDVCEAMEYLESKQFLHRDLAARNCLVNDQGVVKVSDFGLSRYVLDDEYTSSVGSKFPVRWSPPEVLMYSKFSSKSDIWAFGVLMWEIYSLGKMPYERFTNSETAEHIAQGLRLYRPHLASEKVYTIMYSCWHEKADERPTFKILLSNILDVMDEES
pIC50: −log10 of the molar value.
Tick yes (1) if pIC50 is 7 or greater. Tick no (0) if pIC50 is less than 7.

// below: answered molecules
C=C(F)C(=O)N1CC[C@@H](n2nc(-c3ccc(Oc4c(F)c(F)cc(F)c4F)cc3F)c3c(N)ncnc32)C1 ... yes (1)
C=CC(=O)N1CC[C@@H](n2nc(-c3ccc(Oc4nccc(Cl)n4)cc3F)c3c(N)ncnc32)C1 ... yes (1)
C=CC(=O)N1CC[C@@H](n2nc(-c3ccc(C(=O)c4ccccc4F)cc3F)c3c(N)ncnc32)C1 ... yes (1)
C=CC(=O)N[C@@H]1CC[C@@H](n2nc(-c3ccc(Oc4c(F)c(F)cc(F)c4F)cc3F)c3c(N)ncnc32)C1 ... yes (1)

Then this molecule:
Ask: Confirm if pIC50 reported for the molecule "Nc1ncnc2c1c(-c1ccc(Oc3c(F)c(F)cc(F)c3F)cc1F)nn2[C@@H]1CCN(C(=O)/C=C/c2ccccc2)C1" is 7 or above.
Result: no (0)

###

experiment: Toxicokinetic (TK) study in rats, 28-day; format: in vivo, rat; details: male, rat, in vivo, 200 mg/kg, Study Day 28, Male, read-out: AUC0-24 h
METRIC: AUC(0-t) (ng·h/mL)
# value in ng·h/mL; strip the unit string

Ask: Give reported AUC(0-t) value for "C=CC(=O)N1CC[C@@H](n2nc(-c3ccc(Oc4c(F)c(F)cc(F)c4F)cc3F)c3c(N)ncnc32)C1"
Result: 45100

###

experiment: Pharmacokinetic study in male SD rats; assay type: in vivo; details: rat, plasma, IV, 2 mg/kg, mean
METRIC: clearance

Ask: Give reported clearance value for "C=CC(=O)N1CC[C@@H](n2nc(-c3ccc(Oc4c(F)c(F)cc(F)c4F)cc3F)c3c(N)ncnc32)C1"
Result: 20.2 mL/min/kg

###

experiment: Pharmacokinetic study in Beagle dogs; format: in vivo; conditions: dog, plasma, PO, 5 mg/kg, mean
METRIC: Cmax (ng/mL)
# value in ng/mL; strip the unit string

Ask: Give reported Cmax value for "C=CC(=O)N1CC[C@@H](n2nc(-c3ccc(Oc4c(F)c(F)cc(F)c4F)cc3F)c3c(N)ncnc32)C1"
Result: 189

###

assay: Toxicokinetic (TK) study in rats, 28-day; format: in vivo, rat; details: male, rat, in vivo, 40 mg/kg, Study Day 28, Male
METRIC: Cmax (ng/mL)
# value in ng/mL; strip the unit string

Ask: Give reported Cmax value for C=CC(=O)N1CC[C@@H](n2nc(-c3ccc(Oc4c(F)c(F)cc(F)c4F)cc3F)c3c(N)ncnc32)C1 [Compound 45]
Result: 2090
